endpoint: melting point (°C)
Numbers only here, please. The scale is °C.

Cc1c2n(c3c(-c4ccc(Cl)c(F)c4)cc(Cl)cc13)CCNC2=O [Example 98] | 242.5
COc1ccc(-c2cc(Cl)cc3c(C)c4n(c23)CCNC4=O)cc1 [Example 67] | 264
Cc1c2n(c3c(-c4ccc5c(c4)OCO5)cc(F)cc13)CCNC2=O [Example 123] | 206

Asked: Query (compound): COc1ccc(-c2cc(C#N)cc3cc4n(c23)CCCNC4=O)cc1 [Example 275] ; field requested: melting point
Given back: 260.5

Asked: Name the recorded melting point for Cc1c2n(c3c(-c4ccc(N)nc4)cc(F)cc13)CCNC2=O [Example 160] .
Given back: 254

###

test system: human embryonic stem cell derived neural stem cells (NSCs); assay: Neural Stem Cell Proliferation Assay (neurogenesis assay, ATP levels by CellTiterGlo); type: cell-based; conditions: 96 h, compound concentration at which 150% activity of control (100%) is reached, NSC proliferation by ATP level after 4 days incubation, dose response 8 μM to 8 nM
endpoint: log10(EC (150% of control)) (log10 of the value in µM)
On a log10 scale: recorded EC (150% of control), unit µM.

Example compounds with recorded log10(EC (150% of control)):
Cc1c2n(c3c(-c4ccc(N)nc4)cc(C#N)cc13)CCCNC2=O | -0.54
Cc1c2n(c3c(-c4nnc(C(F)(F)F)s4)cc(F)cc13)CCNC2=O | 0.05
COc1ccc(-c2c(F)c(F)cc3cc4n(c23)CCCNC4=O)cc1 | -2.22

Asked: Form: Entry = `Cc1cc(-c2ccc(F)cc2)c2c(c1)cc1n2CCNC1=O` | System = human embryonic stem cell derived neural stem cells (NSCs) | log10(EC (150% of control)) = ____
Given back: -0.49

Asked: Query the reported log10(EC (150% of control)) for human embryonic stem cell derived neural stem cells (NSCs); item: `Cc1c2n(c3c(-c4ccc(F)c(F)c4)cc(C#N)cc13)CCNC2=O`
Given back: -1.35

###

endpoint: melting point (°C)
Write the number in °C without appending the unit.

COc1cc(-c2ccc(F)cc2)c2c(c1)cc1n2CCNC1=O | 220
O=C1NCCn2c1cc1cc(OC(F)(F)F)cc(-c3ccc(C(F)(F)F)cc3)c12 | 243
COc1cc(-c2ccc(F)c(F)c2)c2c(c1)cc1n2CCNC1=O | 216
Cc1c2n(c3c(-c4cncnc4)cc(C#N)cc13)CCNC2=O | 325
N#Cc1cc(-c2cc(F)cc(F)c2)c2c(c1)cc1n2CCNC1=O | 264
Cc1c2n(c3c(-c4ccnc(Cl)c4)cc(F)cc13)CCNC2=O | 254
N#Cc1cc(-c2ccc([N+](=O)[O-])cc2)c2c(c1)cc1n2CCNC1=O | 369.5
Cc1c2n(c3c(-c4cccc(F)c4)cc(F)cc13)CCNC2=O | 222

--- query ---
Asked: Which melting point value is on record for `CS(=O)(=O)c1ccc(-c2cc(C#N)cc3cc4n(c23)CCCNC4=O)cc1` ?
Given back: 305.5

###

system: human embryonic stem cell derived neural stem cells (NSCs); assay: Neural Stem Cell Proliferation Assay (neurogenesis assay, ATP levels by CellTiterGlo); type: cell-based; conditions: 96 h, compound concentration at which 150% activity of control (100%) is reached, NSC proliferation by ATP level after 4 days incubation, dose response 8 μM to 8 nM
endpoint: log10 of EC (150% of control) (log10 of the value in µM)
Log10 applied to EC (150% of control); unit prior to transform: µM.

Asked: Endpoint output: log10 of EC (150% of control) of `Cc1ccc(-c2cc(C#N)cc3cc4n(c23)CCCNC4=O)cc1F` . Value?
Given back: -0.19

Asked: Need log10 of EC (150% of control), item `Cc1c2n(c3c(-c4ccnc(F)c4)cc(F)cc13)CCNC2=O`
Given back: -1.57

Asked: If you can, please state the reported log10 of EC (150% of control) value of `O=C1NCCn2c1cc1cc(F)cc(-c3ccccc3)c12` .
Given back: -1.43

Asked: Fill blank: measured log10 of EC (150% of control) of the compound `N#Cc1cc(-c2ccc(C(F)(F)F)cc2)c2c(c1)cc1n2CCNC1=O` is ____.
Given back: -1.74

Asked: For `Cc1ccc(-c2cc(Cl)cc3c(C)c4n(c23)CCNC4=O)cc1` , what is its reported log10 of EC (150% of control)?
Given back: -2.00

Asked: What value of log10 of EC (150% of control) has been reported for the following compound? `N#Cc1cc(-c2ccc(F)cc2F)c2c(c1)cc1n2CCCNC1=O`
Given back: -1.14

Asked: Given `N#Cc1cc(-c2cc(F)c(F)c(F)c2)c2c(c1)cc1n2CCNC1=O` , state its recorded log10 of EC (150% of control).
Given back: -0.66

Asked: Entry under review: `N#Cc1cc(-c2ccc(OC(F)(F)F)cc2)c2c(c1)cc1n2CCNC1=O` . Reported log10 of EC (150% of control)?
Given back: -1.43

Asked: Quick one: log10 of EC (150% of control) for `O=C1NCCCn2c1cc1cc(F)c(F)c(-c3ccc(F)c(F)c3)c12` ?
Given back: -0.68

Asked: Item `N#Cc1cc(-c2ccc([N+](=O)[O-])cc2)c2c(c1)cc1n2CCNC1=O` has what recorded log10 of EC (150% of control)?
Given back: -1.70

Asked: Request the reported log10 of EC (150% of control) associated with `Cc1c2n(c3c(-c4ccc(Cl)cc4)cc(C#N)cc13)CCNC2=O`
Given back: -1.89

Asked: Which log10 of EC (150% of control) value is on record for `N#Cc1cc(-c2ccc([N+](=O)[O-])cc2)c2c(c1)cc1n2CCCNC1=O` ?
Given back: -0.68

Asked: What log10 of EC (150% of control) value was documented for this compound, `O=C1NCCCn2c1cc1cc(F)cc(-c3ccccc3)c12` ?
Given back: -1.08

Asked: So what does the record say about log10 of EC (150% of control) for `COc1ccc(-c2cc(C)cc3cc4n(c23)CCCNC4=O)cc1` ?
Given back: -0.46

Asked: # get_value(readout='log10 of EC (150% of control)', item= `Cc1c2n(c3c(-c4ccc5c(c4)CCO5)cc(Cl)cc13)CCNC2=O` )
Given back: -1.26

Asked: Name the reported log10 of EC (150% of control) value associated with the compound `Cc1c2n(c3c(-c4ccc(C(F)(F)F)cc4)cc(F)cc13)CCNC2=O`
Given back: -1.44

Asked: Looking for the measured log10 of EC (150% of control) of `N#Cc1cc(-c2ccc(Cl)c(Cl)c2)c2c(c1)cc1n2CCCNC1=O` , can you help?
Given back: -0.51

Asked: Which value of log10 of EC (150% of control) has been reported for `N#Cc1cccc(-c2cc(C#N)cc3cc4n(c23)CCCNC4=O)c1` in the records?
Given back: 0.04

Asked: Please report the recorded log10 of EC (150% of control) for `N#Cc1cc(-c2ccccc2)c2c(c1)cc1n2CCNC1=O` .
Given back: -1.46

Asked: Give the measured log10 of EC (150% of control) of `Cc1c2n(c3c(-c4ccc(CO)cc4)cc(Cl)cc13)CCNC2=O` .
Given back: -1.85

Asked: What value of log10 of EC (150% of control) has been recorded for this entry: `C[C@@H]1CNC(=O)c2cc3cc(F)cc(-c4cccc(F)c4)c3n21`
Given back: -0.47

###

tested on: human embryonic stem cell derived neural stem cells (NSCs); test: Neural Stem Cell Proliferation Assay (neurogenesis assay, ATP levels by CellTiterGlo); type: cell-based; settings: 96 h, compound concentration at which 150% activity of control (100%) is reached, NSC proliferation by ATP level after 4 days incubation, dose response 8 μM to 8 nM
endpoint: EC (150% of control)

// known answers, use as guide
Cc1c2n(c3c(-c4ccc(C(C)(C)C)cc4)cc(F)cc13)CCNC2=O | 0.046 µM
Cc1c2n(c3c(-c4nccs4)cc(F)cc13)CCNC2=O | 0.36 µM
C[C@@H]1CNC(=O)c2cc3cc(F)cc(-c4ccc(F)cc4)c3n21 | 0.22 µM

Asked: Record request: EC (150% of control) value, item `Cc1c2n(c3c(-c4ccc(F)cc4F)cc(Cl)cc13)CCNC2=O`
Given back: 0.009 µM

Asked: Look up EC (150% of control) for this compound: `O=C1NCCCn2c1cc1cc(F)c(F)c(-c3ccc(F)cc3)c12`
Given back: 0.024 µM
